- Measured On: Low molecular weight protein-tyrosine phosphatase A (Mycobacterium tuberculosis, UniProt P9WIA1)
- Sequence (P9WIA1 whole entry): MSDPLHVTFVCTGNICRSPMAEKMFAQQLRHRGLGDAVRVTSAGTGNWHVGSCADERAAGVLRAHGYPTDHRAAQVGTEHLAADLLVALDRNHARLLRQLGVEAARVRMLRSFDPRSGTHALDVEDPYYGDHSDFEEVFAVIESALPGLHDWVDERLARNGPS
- Assay Name: Inhibition of Mycobacterium tuberculosis recombinant protein tyrosine phosphatase
Measured Attribute: IC50
A complete answer gives the number followed by the unit.

// solved cases for IC50 follow
| Record Smiles | IC50 |
| --- | --- |
| COc1ccc(C(=O)/C=C/c2ccc3ccccc3c2)cc1OC | 23.1 µM |
| COc1ccc(OC)c(C(=O)/C=C/c2ccc3ccccc3c2)c1 | 8.4 µM |
| COc1ccc(OC)c(C(=O)/C=C/c2cccc3ccccc23)c1 | 39.5 µM |

Then this compound:
Q: Quote IC50 reported for O=C(/C=C/c1cccc2ccccc12)c1ccccc1O please.
Result: 50.7 µM

These entries and their values trace back to ChEMBL document CHEMBL1152134.
